- System: PBMC
- EXPERIMENTAL_PROTOCOL: In vitro antiproliferative activity against human PBM cell line by MTT assay
- Format: functional, cell-based
PROPERTY_NAME: pIC50
In textbook form, pIC50 equals minus log to base ten of the concentration in mol/L.

The examples below pair each entry with its known result.
C=C(Br)C(=O)Nc1ccc2sc(C(=O)NCCNC(=O)c3cc(OCC4(c5ccc(Cl)cc5)CC(=C)C(=O)O4)nn3C)cc2c1 (centres undefined)    5.17
C=C(Br)C(=O)Nc1ccc2c(c1)cc(C(=O)NCCNC(=O)c1cc(OCC3(c4ccccc4)CC(=C)C(=O)O3)nn1C)n2C (centres undefined)    5.60
C=C(Br)C(=O)Nc1ccc2sc(C(=O)NCCNC(=O)c3cc(OCC4(c5ccc(-c6ccccc6)cc5)CC(=C)C(=O)O4)nn3C)cc2c1 (centres undefined)    5.06

Now turn to the next molecule.
Suppose we examine the molecule C=C(Br)C(=O)Nc1ccc2oc(C(=O)NCCNC(=O)c3cc(OCC4(c5ccccc5)CC(=C)C(=O)O4)nn3C)cc2c1 (centres undefined) ; what pIC50 value has been reported?
5.26
